A collection of compounds and their measured IC50
Target: purified HLA DRB1*0405 (Homo sapiens, UniProt P01903+P01911, A100R/A169T/D86S/F76Y/I96L/K127E/L162R/M171V/N62H/P40V/Q125Y/R42H/S133A/S149N/S66Y/V115G/V209L/W38E)
Construct: purified from EBV transformed homozygous cell lines or single MHC allele transfected 721.221, C1R, or fibroblast lines; made in house
Assay: HLA-DR radioligand binding inhibition assay, DRB1*0405
Details: IC50 nM purified HLA DRB1 *0405, purified HLA DRB1*0405
MEASURED_METRIC: IC50 (nM)

compound="CC[C@H](C)[C@H](NC(=O)CNC(=O)[C@H](CS)NC(=O)[C@@H](N)C(C)C)C(=O)N[C@@H](CCC(N)=O)C(=O)N[C@@H](CC(N)=O)C(=O)N[C@@H](CO)C(=O)N[C@H](C(=O)N[C@@H](CO)C(=O)N[C@@H](C)C(=O)N[C@@H](CC(N)=O)C(=O)N[C@@H](CCCNC(=N)N)C(=O)N[C@@H](CO)C(=O)N[C@@H](CC(=O)O)C(=O)N1CCC[C@H]1C(=O)O)C(C)C [Peptide 9019.0135]" test_result=1850
compound="CC[C@H](C)[C@H](NC(=O)[C@@H](NC(=O)[C@@H]1CCCN1C(=O)[C@H](C)N)[C@@H](C)O)C(=O)N[C@@H](CO)C(=O)N1CCC[C@H]1C(=O)N[C@@H](CC(C)C)C(=O)N[C@@H](CC(N)=O)C(=O)N[C@H](C(=O)N[C@@H](CO)C(=O)N[C@@H](Cc1ccc(O)cc1)C(=O)N[C@@H](CCCNC(=N)N)C(=O)N[C@@H](CO)C(=O)NCC(=O)N[C@@H](CCC(=O)O)C(=O)O)[C@@H](C)O [Peptide 9019.0121]" test_result=5990
compound="CC(C)C[C@H](NC(=O)[C@H](CC(N)=O)NC(=O)[C@H](C)NC(=O)CNC(=O)[C@H](CO)NC(=O)[C@H](CC(C)C)NC(=O)[C@H](Cc1ccc(O)cc1)NC(=O)[C@H](CO)NC(=O)[C@@H](N)CO)C(=O)N[C@@H](CC(N)=O)C(=O)N[C@@H](CC(C)C)C(=O)N[C@@H](CO)C(=O)N[C@@H](CS)C(=O)N[C@@H](Cc1c[nH]cn1)C(=O)N[C@@H](CO)C(=O)O [Peptide 9019.0137]" test_result=7820
compound="CC[C@H](C)[C@H](NC(=O)[C@H](CC(C)C)NC(=O)[C@@H](NC(=O)CNC(=O)CNC(=O)[C@H](CCCCN)NC(=O)[C@H](CC(C)C)NC(=O)[C@@H](NC(=O)[C@H](CCC(=O)O)NC(=O)[C@@H](N)[C@@H](C)O)[C@@H](C)CC)C(C)C)C(=O)N[C@@H](CCC(N)=O)C(=O)N[C@@H](CCCNC(=N)N)C(=O)N[C@@H](CC(N)=O)C(=O)N1CCC[C@H]1C(=O)N[C@@H](CCC(N)=O)C(=O)O [Peptide 9019.0039]" test_result=769
compound="CC[C@H](C)[C@H](NC(=O)CNC(=O)[C@H](CC(C)C)NC(=O)CN)C(=O)N[C@@H](CO)C(=O)N[C@@H](Cc1c[nH]c2ccccc12)C(=O)N[C@@H](CC(C)C)C(=O)NCC(=O)N[C@@H](CC(C)C)C(=O)N[C@@H](CCCNC(=N)N)C(=O)N[C@@H](CO)C(=O)N[C@@H](CC(C)C)C(=O)N[C@@H](CCCNC(=N)N)C(=O)N[C@@H](CCC(=O)O)C(=O)N[C@@H](CC(C)C)C(=O)O [Peptide 9019.0056]" test_result=3.1
